Here the recorded folding stability dG is given for each entry.
B1: EHEE_rd2_0191 (parent)
chain: TTEYTFTDDEEARRAIEELKKRGLTFRYEKHGTTWRVRVD

Variants of: B1
assay-info: folding stability dG (cDNA display proteolysis); higher = more stable
measurement-context: PBS, room temperature
Just the number please, in kcal/mol, no unit attached.

Sample answers from the record:
>>> print(df.to_string())
                             residue_string  unit_of_measure  measured_number
0  TTEYTFTDDEEQRRAIEELKKRGLTFRYEKHGTTWRVRVD [A12Q]         kcal/mol           -0.999
1  TTEYTFEDDEEARRAIEELKKRGLTFRYEKHGTTWRVRVD [T7E]         kcal/mol             2.07
2  TTEYTFTDDEEARRAIEELKKRGLTFRQEKHGTTWRVRVD [Y28Q]         kcal/mol            0.764
3  TTEYTFFDDEEARRAIEELKKRGLTFRYEKHGTTWRVRVD [T7F]         kcal/mol             2.22

Incoming: Requested read-out: folding stability dG. Entry: TTEYTFTDDEEARRAIEELKKRGLTFRYEKHGTTSRVRVD [W35S]
Outgoing: 0.309

Incoming: Requested read-out: folding stability dG. Entry: TTEYTFTDDEEARRAIAELKKRGLTFRYEKHGTTWRVRVD [E17A]
Outgoing: 2.25

Incoming: Requested read-out: folding stability dG. Entry: TTEYTFTDDEEARRAIEELKKRGLTFRYEKLGTTWRVRVD [H31L]
Outgoing: 2.29

Incoming: Requested read-out: folding stability dG. Entry: GTEYTFTDDEEARRAIEELKKRGLTFRYEKHGTTWRVRVD [T1G]
Outgoing: 1.95

Incoming: Requested read-out: folding stability dG. Entry: TTEYTFTDDEEARRAIEELKKRGLTFRYEKMGTTWRVRVD [H31M]
Outgoing: 2.18
